System: recombinant guanylate cyclase reporter cell line
Experiment: Effect on a recombinant guanylate cyclase reporter cell line
Type: cell-based
Conditions: in some cases mean values from individual determinations, read-out: MEC (minimum effective concentration)
assay_endpoint: minimal effective concentration

compound	target_under_test	assay_endpoint	observed
O=C(N[C@@H](CO)C(=O)Nc1ccc2ccccc2c1)c1ccnc2c(OCc3c(F)cccc3F)cccc12	recombinant guanylate cyclase reporter cell line	minimal effective concentration	10 µM
O=C(NCCN(CC(F)F)C1CC1)c1ccnc2c(OCc3c(F)cccc3F)cccc12	recombinant guanylate cyclase reporter cell line	minimal effective concentration	3 µM
N#CC(NC(=O)c1ccnc2c(OCc3c(F)cccc3F)cccc12)c1ccc(Cl)cc1 (centres unmarked)	recombinant guanylate cyclase reporter cell line	minimal effective concentration	3 µM
CCC(C)(N)CNC(=O)c1cc(C)nc2c(OCc3c(F)cccc3F)cccc12 (single isomer, unassigned; enantiomer b)	recombinant guanylate cyclase reporter cell line	minimal effective concentration	3 µM
N#C[C@H]1CC[C@H](CNC(=O)c2ccnc3c(OCc4c(F)cccc4F)cccc23)CC1	recombinant guanylate cyclase reporter cell line	minimal effective concentration	10 µM
O=C(NC1CC1c1ccccc1)c1ccnc2c(OCc3c(F)cccc3F)cccc12 (centres unmarked)	recombinant guanylate cyclase reporter cell line	minimal effective concentration	10 µM
CC[C@](C)(N)CNC(=O)c1cnc2c(OCc3c(F)cccc3F)cccc2c1	recombinant guanylate cyclase reporter cell line	minimal effective concentration	10 µM
O=C(Nc1ccnc2ccc(F)cc12)c1ccnc2c(OCc3c(F)cccc3F)cccc12	recombinant guanylate cyclase reporter cell line	minimal effective concentration	10 µM

====

Tested on: recombinant guanylate cyclase reporter cell line
Assay: Effect on a recombinant guanylate cyclase reporter cell line
Format: cell-based
Conditions: in some cases mean values from individual determinations, read-out: MEC (minimum effective concentration)
Description: B-2. Effect on a Recombinant Guanylate Cyclase Reporter Cell Line The cellular activity of the compounds according to the invention is determined using a recombinant guanylate cyclase reporter cell line, as described in F. Wunder et al., Anal. Biochem. 339, 104-112 (2005). Representative MEC values (MEC=minimum effective concentration) for the compounds of the invention are shown in the table below (in some cases as mean values from individual determinations): […]
assay_endpoint: minimal effective concentration (µM)

compound	assay_endpoint	observed
Cc1cc(C(=O)NCC(C)(N)CCC(F)(F)F)c2cccc(OCc3c(F)cccc3F)c2n1 (single isomer, unassigned; enantiomer b) [Example 43]	minimal effective concentration	1
CC(N)(CCC(F)(F)F)CNC(=O)c1ccnc2c(OCc3c(F)cccc3F)cccc12 (single isomer, unassigned; enantiomer b) [Example 6]	minimal effective concentration	0.3
CC(C)(O)C(CCC(F)(F)C(F)(F)F)NC(=O)c1ccnc2c(OCc3c(F)cccc3F)cccc12 (single isomer, unassigned; ent-8) [Example 32]	minimal effective concentration	2
Cc1[nH]nc(C(F)(F)F)c1NC(=O)c1ccnc2c(OCc3c(F)cccc3F)cccc12 [Example 19]	minimal effective concentration	3
O=C(NC(CO)c1ccc(F)cc1)c1ccnc2c(OCc3c(F)cccc3F)cccc12 (stereo not drawn) [Example 33]	minimal effective concentration	2
Cc1cc(OCc2c(F)cccc2F)c2nccc(C(=O)NC(C)(CO)c3nnn(C(F)F)n3)c2c1 (racemic) [Example 49]	minimal effective concentration	2

====

System: recombinant guanylate cyclase reporter cell line
Test: Effect on a recombinant guanylate cyclase reporter cell line
Type: cell-based
Conditions: in some cases mean values from individual determinations, read-out: MEC (minimum effective concentration)
minimal effective concentration reference
assay_endpoint: minimal effective concentration

molecule	assay_endpoint	observed
CCCC[C@H](CO)NC(=O)c1cnc2c(OCc3c(F)cccc3F)cccc2c1 [Example 38]	minimal effective concentration	3 µM
CN1CCC(NC(=O)c2ccnc3c(OCc4c(F)cccc4F)cccc23)c2ccccc21 (centres unmarked) [Example 27]	minimal effective concentration	1 µM
CC(COCC(F)(F)F)NC(=O)c1ccnc2c(OCc3c(F)cccc3F)cccc12 (centres unmarked) [Example 21]	minimal effective concentration	3 µM
CC(N)(CNC(=O)c1ccnc2c(OCc3c(F)cccc3F)cccc12)CC(F)F (single isomer, unassigned; enantiomer b) [Example 7]	minimal effective concentration	2 µM
O=C(NCCN1CCOCC1)c1ccnc2c(OCc3c(F)cccc3F)cccc12 [Example 16]	minimal effective concentration	10 µM
CCC(N)(CC)CNC(=O)c1ccnc2c(OCc3c(F)cccc3F)cccc12 [Example 11]	minimal effective concentration	3 µM
COc1ccc(CC(C)(N)CNC(=O)c2ccnc3c(OCc4c(F)cccc4F)cccc23)cc1 (single isomer, unassigned; enantiomer a) [Example 36]	minimal effective concentration	3 µM
O=C(NCc1ccc(Cl)nc1)c1ccnc2c(OCc3c(F)cccc3F)cccc12 [Example 20]	minimal effective concentration	3 µM
O=C(N[C@H]1CCOC1=O)c1ccnc2c(OCc3c(F)cccc3F)cccc12 [Example 24]	minimal effective concentration	10 µM
O=C(NC1(c2ccc(F)cc2)CC1)c1cnc2c(OCc3c(F)cccc3F)cccc2c1 [Example 39]	minimal effective concentration	1 µM
CC[C@](C)(N)CNC(=O)c1ccnc2c(OCc3c(F)cccc3F)cccc12 [Example 5]	minimal effective concentration	3 µM
